Measured values drawn from PubChem BioAssay AID1986 for this set.

TEST_NAME: inhibitors of HIV fusion peptide binding, primary screen, biochemical, uHTS, fluorescence dequenching (AID 1986)
ASSAY_CONTEXT: cell-free peptide binding, 30 min, at 20 µM, active compounds read high
Hit rate of the full screen: of about 290,000 compounds, about 890 (0.31%) were called active. The sample as a whole holds a higher share of actives than the screen did.
# label = Fulfilled if inhibition >= 30% else Not fulfilled

Please tell me: is the compound CCS(=O)(=O)C1=NN2C(=N)/C(=C\c3ccc(OC(=O)c4ccco4)c(Br)c3)C(=O)N=C2S1 at or over 30% in terms of inhibition?
Fulfilled

Query COc1ccc(OC)c(C2C3CN(C(C)C)CC=C3C(C#N)=C(N)C2(C#N)C#N)c1 (centres undefined) next
Not fulfilled

Query COc1cc(N2CCCC2)c(OC)cc1/C=C(/C#N)c1ccc(F)cc1 next
Not fulfilled

Query COc1cc(/C=C2/C(=N)N3C(SC)=NSC3=NC2=O)ccc1OC(=O)c1ccco1 next
Fulfilled

Query CN1CC=C2C(C#N)=C(N)C(C#N)(C#N)C(CCc3ccccc3)C2C1 (centres undefined) next
Fulfilled

Query CC(C)N1CC=C2C(C#N)=C(N)C(C#N)(C#N)[C@H](c3ccoc3)[C@H]2C1 next
Fulfilled

Query CN1CCN(/N=C/c2ccc(-c3ccccc3)cc2)CC1 next
Not fulfilled

Query Cc1nn(-c2ccccc2)c(Cl)c1/C=N/Nc1ccc(S(=O)(=O)Nc2ccccc2C(=O)O)cc1[N+](=O)[O-] next
Fulfilled

Query CCS(=O)(=O)C1=NSC2=NC(=O)/C(=C\c3ccc(OC(=O)c4ccco4)c(OC)c3)C(=N)N21 next
Not fulfilled

Query COCCNC(=S)N1CCN(c2cccc(C(F)(F)F)c2)CC1 next
Not fulfilled

Query CCS(=O)(=O)C1=NN2C(=N)/C(=C\c3ccc(SCc4ccco4)o3)C(=O)N=C2S1 next
Fulfilled

Query CCc1nnc(NS(=O)(=O)c2ccc(NC(=S)NC(=O)/C=C/c3ccc(OC)cc3)cc2)s1 next
Fulfilled

Query Cc1ccc(N(CC(=O)NCc2ccccc2Cl)S(=O)(=O)c2cccs2)cc1 next
Not fulfilled

Query CN1CC=C2C(C#N)=C(N)C(C#N)(C#N)[C@H](c3cccc(Cl)c3)C2C1 (some centres undefined) next
Not fulfilled

Query O=C(CCN1C(=O)/C(=C/c2ccc(Cl)cc2)SC1=S)Nc1cccc(C(=O)O)c1 next
Fulfilled

Query COc1ccc([N+](=O)[O-])cc1/C=N/NC(=O)/C(=C\c1cccs1)NC(=O)c1ccccc1 next
Not fulfilled

Query C/C(CC(=O)Nc1ccc(Cl)c(C(F)(F)F)c1)=N\NC(=O)c1ccccc1O next
Not fulfilled

Query CC(=O)N1CC=C2C(C#N)=C(N)C(C#N)(C#N)[C@H](c3ccoc3)[C@H]2C1 next
Not fulfilled

Query Cc1ccc(C2C3CSCC=C3C(C#N)=C(N)C2(C#N)C#N)cc1 (centres undefined) next
Not fulfilled

Query CCOC(=O)c1ccc(N=C2SC(C(=O)NC)CC(=O)N2Cc2ccc(F)cc2)cc1 (centres undefined) next
Not fulfilled

Query N#C/C(=C/c1ccc(N2CCCCCC2)o1)c1cccc(F)c1 next
Not fulfilled

Query Cc1ccc(-n2c(=O)c3ccc(C(=O)NCc4ccco4)cc3n(Cc3ccccc3C#N)c2=O)cc1 next
Not fulfilled

Query c1ccc2sc(NC3=NCN(CC4CCCO4)CN3)nc2c1 (centres undefined) next
Not fulfilled

Query CCOC(=O)c1ccc(NC(=O)c2ccc(CN3CCOCC3)cc2)cc1 next
Not fulfilled

Query COc1ccc(Nc2nc3ccccc3nc2NS(=O)(=O)c2cccs2)c(OC)c1 next
Fulfilled

Query Cc1cccc(Nc2nnc(SCC(=O)NCc3cccs3)s2)c1 next
Not fulfilled

Query COc1ccccc1C(=O)N/C(=C/c1ccc(Br)cc1)C(=O)NCCO next
Not fulfilled

Query O=C(O)CN1C(=O)/C(=C/c2ccc(N3CCCCC3)o2)SC1=S next
Not fulfilled

Query O=C(O)CN1C(=O)/C(=C\C(Br)=C\c2ccccc2)SC1=S next
Fulfilled
